The values you see were collected from patent US20210355194A1.

Biological target: T1, COVID S1 RBM Fc fusion (Antigen 2) (SARS-CoV-2, UniProt P0DTC2 437-508)
T1 construct: domain: S1 RBM
Experiment: phage ELISA
The binders listed here are annotated with their specificity ELISA, percent binding relative to Acro S1.
Reply numerically in %, unit not repeated.

variant 2-9 (antibody, V domains shown) VH: EVQLLESGGGLVQPGGSLRLSCAASGFTFPRYAMSWVRQAPGKGLEWVSTISGSGSTTYYADSVKGRFTISRDNSKNTLYLQMNSLRAEDTAVYYCARLIDAFDIWGQGTLVTVSS VL: DIQMTQSPSSLSASVGDRVTITCRASQRIGTYLNWYQQKPGKAPKLLIYAASNLEGGVPSRFSGSGSGTDFTLTISSLQPEDFATYYCQQNYSTTWTFGQGTKVEIK: 3.5
variant 2-8 (antibody, V domains shown) VH: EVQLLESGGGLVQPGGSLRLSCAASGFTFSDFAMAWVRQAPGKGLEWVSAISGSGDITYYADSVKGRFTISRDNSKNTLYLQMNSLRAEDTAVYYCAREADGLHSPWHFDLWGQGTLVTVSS VL: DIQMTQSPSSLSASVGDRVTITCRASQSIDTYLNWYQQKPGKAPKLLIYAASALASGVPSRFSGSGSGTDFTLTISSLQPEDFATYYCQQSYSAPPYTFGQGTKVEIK: 3.1

Prompt line: Could you tell me which specificity ELISA, percent binding relative to Acro S1 is on file for variant 2-5 (antibody, V domains shown) VH: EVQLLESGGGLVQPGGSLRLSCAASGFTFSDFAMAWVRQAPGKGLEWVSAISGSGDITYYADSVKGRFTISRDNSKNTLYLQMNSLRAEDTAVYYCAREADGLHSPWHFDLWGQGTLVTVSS VL: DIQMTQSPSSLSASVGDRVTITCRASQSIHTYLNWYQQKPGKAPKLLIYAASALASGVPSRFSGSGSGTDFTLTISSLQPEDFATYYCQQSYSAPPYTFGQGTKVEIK ?
Response line: 3
